All figures here come from PubChem BioAssay (NCI).

System: U251 CNS
testMethodNotes: NCI tumour cell line growth inhibition, 48 h
resultType: TGI

Worked examples follow.
CC1=C(C(=O)Nc2cc(F)c(F)cc2F)C(c2ccc3c(c2)OCO3)C(C(=O)Nc2cc(F)c(F)cc2F)=C(C)N1 : > 100 µM
COc1cc(C2c3cc4c(cc3CC3COC(=O)N32)OCO4)cc(OC)c1OC (stereo not given) : > 31.6 µM
NC1=NS(=O)(=O)Nc2nc(-c3ccccc3)c(-c3ccccc3)nc21 : > 100 µM
COC(=O)[C@@]12CCCC(=O)[C@@H]1[C@H]1CCC[C@H]12 : > 100 µM
CC#CC(OCC)(OCC)OCC : > 100 µM

For every item in the list below, what is its measured TGI?
1. CC(C)CCC[C@@H](C)[C@H]1CCC2C3=CCn4c(=O)ccc(=O)n4C3CC[C@@]21C (stereo not given in full)
2. Cc1ccc(NCCN2CCCCC2)c2c(=O)c3ccccc3sc12
3. CCN(CC)CCOc1nc2c3ccc(Cl)cc3nn2c2ccccc12
4. CCOC(=O)C1C(=O)CC(O)(c2ccccc2)C(C(=O)OCC)C1c1ccc(N(C)C)cc1 (stereo not given)
5. C[C@H](O)CNc1cc(-c2[nH]c3cccnc3c2-c2ccc(F)cc2)ccn1

Given back:
["1.84 µM", "7.9 µM", "5.4 µM", "> 81.2 µM", "> 25 µM"]
